Documented % folded across a set of substances
- assay.notes: CD thermal transition
- Type: physicochemical
- condition.parameters: 25 °C, from thermal transition at 225 nm
Hi! Could you send only the number? It should be in %, unit omitted.

(Gly-Pro-Hyp)6-Gly-Pro-Gln-Gly~Ile-His-Lys-Gln-Arg-Gly-Val-Arg-(Gly-Pro-Hyp)5-NH2 [IHK] :: 83

Tell me % folded reported for (Gly-Pro-Hyp)6-Gly-Pro-Gln-Gly~Ile-Tyr-Phe-Gln-Arg-Gly-Val-Arg-(Gly-Pro-Hyp)5-NH2 [IYF]
88

Specify measured % folded for (Gly-Pro-Hyp)5-Gly-Arg-Ile-Gly-Phe~Leu-Arg-Thr-Gln-Gly-Val-Arg-(Gly-Pro-Hyp)5-Tyr-NH2 [FLRT] .
79

Supply % folded value. Item: (Gly-Pro-Hyp)5-Gly-Arg-Ile-Gly-His~Leu-Arg-Thr-Gln-Gly-Val-Arg-(Gly-Pro-Hyp)5-Tyr-NH2 [HLRT]
72

Indicate the recorded % folded value for this substance: (Gly-Pro-Hyp)6-Gly-Pro-Gln-Gly~Val-Gln-His-Gln-Arg-Gly-Val-Arg-(Gly-Pro-Hyp)5-NH2 [VQH]
87

Report measured % folded; entry is (Gly-Pro-Hyp)5-Gly-Arg-Ile-Gly-Phe~Leu-Asp-Pro-Gln-Gly-Val-Arg-(Gly-Pro-Hyp)5-Tyr-NH2 [FLDP]
72

Name the recorded % folded of the item (Gly-Pro-Hyp)6-Gly-Pro-Gln-Gly~Val-Ser-Trp-Gln-Arg-Gly-Val-Arg-(Gly-Pro-Hyp)5-NH2 [VSW] in your answer.
92

// data source = paper PMC6413923
